# TARGET_SYSTEM: IL-12 (human, p35/p40 heterodimer) (Homo sapiens, UniProt P29459;P29460 SEQ:57-253,SEQ:23-328)
# Sequence (P29459 23-219, chain 1 of 2): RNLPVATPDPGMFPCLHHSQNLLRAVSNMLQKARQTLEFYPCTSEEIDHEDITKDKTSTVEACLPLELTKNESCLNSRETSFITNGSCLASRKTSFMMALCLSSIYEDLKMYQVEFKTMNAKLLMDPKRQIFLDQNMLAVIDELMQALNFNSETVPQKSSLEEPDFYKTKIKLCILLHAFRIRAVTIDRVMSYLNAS
# Sequence (P29460 23-328, chain 2 of 2): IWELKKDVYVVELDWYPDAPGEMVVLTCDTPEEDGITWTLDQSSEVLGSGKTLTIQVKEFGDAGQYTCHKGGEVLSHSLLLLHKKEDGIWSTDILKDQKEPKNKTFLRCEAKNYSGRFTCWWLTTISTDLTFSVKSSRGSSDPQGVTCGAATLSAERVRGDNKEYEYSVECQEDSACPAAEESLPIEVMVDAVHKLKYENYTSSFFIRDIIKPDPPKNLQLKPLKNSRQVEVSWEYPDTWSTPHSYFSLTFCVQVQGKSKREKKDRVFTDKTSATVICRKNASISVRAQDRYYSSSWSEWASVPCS
# ASSAY_PROCEDURE: filter; 1X PBS, tRNA, ssDNA, BSA, 30 min RT
# ASSAY_SETUP: label: 5'-32P; G4 (predicted)
Assign pKd to each entry below.
One number for each entry, as −log10 of the molar value.

Answered examples (2):
| BINDER | pKd |
| --- | --- |
| ARC627 (mixed, 2'-deoxy A and G, 2'-OMe C and U (dRmY)) RNA: GGGAGAGGAGAGAACGUUCUACAGGCAAGUAAUUGGGGAGUGCGGGCGGGGUGUCGAUCGAUCGAUCAUCGAUG | 7.10 |
| ARC632 (mixed, 2'-deoxy A and G, 2'-OMe C and U (dRmY)) RNA: GGGAGAGGAGAGAACGUUCUACAAUUGCAGGUGGUGCCGGGGGUUGGGGGCGGGUCGAUCGAUCGAUCAUCGAUG | 7.19 |

Reported pKd for ARC626 (mixed, 2'-deoxy A and G, 2'-OMe C and U (dRmY)) RNA: GGGAGAGGAGAGAACGUUCUACAGGCAAGUAAUUGGGGAGUGCGGGCGGGGGGUCGAUCGAUCGAUCAUCGAUG : what is it?
7.16
